Quick reference for self-cleavage among some variants
B1: Hairpin Ribozyme (parent)
chain: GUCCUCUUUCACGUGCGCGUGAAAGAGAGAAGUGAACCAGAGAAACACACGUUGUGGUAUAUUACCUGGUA

Variants of: B1
experimental.protocol: self-cleavage, relative activity (ratio to wild type); higher = more cleavage; co-transcriptional
measured.endpoint: self-cleavage

residue_codes="GUCCUCUUUCACGUGCGCGUGCAAGAGAGAAGUGAACCAGAGAAUCACACGUUGUGGUAUAUUACCUGGUA [A22C A45U]" recorded_value=0.108
residue_codes="GUUCUCUUUCACGUGCGCGUGAAAGAGAGAAGUGAACCAGAGAAACACACGUUGUGGUAUAUAACCUGGUA [C3U U63A]" recorded_value=0.189
residue_codes="GUCCUCUUUCACGUGCGAGUGAAAGAGAGGAGUGAACCAGAGAAACACACGUUGUGGUAUAUUACCUGGUA [C18A A30G]" recorded_value=0.115
residue_codes="GUCCUCUUUCACGUGCGCGUGAAAGAGAGAAGUGAACCAGAGAAACCCACGUUGUGGUAUAUCACCUGGUA [A47C U63C]" recorded_value=0.0902
residue_codes="GUCCUCUUUCACGUGCGCGUGAAAGAGAUAAGUGAACCAGAGAAACACACGCUGUGGUAUAUUACCUGGUA [G29U U52C]" recorded_value=0.178
residue_codes="GUCCCCUUUCACGUGCGCGCGAAAGAGAGAAGUGAACCAGAGAAACACACGUUGUGGUAUAUUACCUGGUA [U5C U20C]" recorded_value=0.673
residue_codes="GUACUCUUUCACGUGCGCGUGAAAGAGAGAAGUGAACCAGAGAAACACACGUUGUGGUAUAUUACCUGGGA [C3A U70G]" recorded_value=0.708
residue_codes="GUCCUCUUUCACGUGCGCGUGAAAGAGCGAAGUGAACCAGAGAAACACACGUUGAGGUAUAUUACCUGGUA [A28C U55A]" recorded_value=0.155
residue_codes="GUCCUCUUUCACGUGCGCGUGAAAGACAGAAGUGAACCAGAGAAACACACGUUGUGGUAUAUUACCUCGUA [G27C G68C]" recorded_value=0.0698
residue_codes="GUCCUCUUUCACGUGCGCGUGAAAGCGAGAAGUGCACCAGAGAAACACACGUUGUGGUAUAUUACCUGGUA [A26C A35C]" recorded_value=0.726
residue_codes="GUCCUCUUUCACGUGCGCGUGAAAGAGAGAAGUGAACCAGAGAAACACACGUUGUGGUAUAUUACCUGCUC [G69C A71C]" recorded_value=0.609
residue_codes="GUCCUCUUUCACGUGCGCGUGAAAGAGAGAAGGGAACUAGAGAAACACACGUUGUGGUAUAUUACCUGGUA [U33G C38U]" recorded_value=0.204
residue_codes="GUCCUCUUUCACGUGCGCGAGAAAGAGAGAAGUGAACCAGAGAAACUCACGUUGUGGUAUAUUACCUGGUA [U20A A47U]" recorded_value=0.274
residue_codes="GUCCUCUUUCACGUGCGCCUGAAAGAGAGAAGUGAACCAGAGAAACACACGUUGUGGUACAUUACCUGGUA [G19C U60C]" recorded_value=0.984
residue_codes="GUCCUUUUUCACGUGCGCGUGAAACAGAGAAGUGAACCAGAGAAACACACGUUGUGGUAUAUUACCUGGUA [C6U G25C]" recorded_value=0.773
residue_codes="GUGCUCUUUCACGUGCGCGUGAAAGCGAGAAGUGAACCAGAGAAACACACGUUGUGGUAUAUUACCUGGUA [C3G A26C]" recorded_value=0.276
residue_codes="GUCCUCUUUCACGUGCGCGAGAAAGAGAGAAGUGAACCAGAGAAACACACGUUGUGGUAUAUUACCUAGUA [U20A G68A]" recorded_value=0.332
residue_codes="GUCCUCUUUCACGUGCGCGUGAAAGAGAGGAGUGAACCAGAGAAACACACGUUGUGGUAUAAUACCUGGUA [A30G U62A]" recorded_value=0.0629
residue_codes="GUCCACUUUCACGUGCGCGUGAAAGAGAGAAGAGAACCAGAGAAACACACGUUGUGGUAUAUUACCUGGUA [U5A U33A]" recorded_value=0.145
residue_codes="GUCCUCUUUCACGUGCGCGUGUAAGAGAGAAGUGAAUCAGAGAAACACACGUUGUGGUAUAUUACCUGGUA [A22U C37U]" recorded_value=0.443
residue_codes="GUCCUCUUUCACGUGCGCGUGAAAGAGAGAAGUGAACCAGAGUAACUCACGUUGUGGUAUAUUACCUGGUA [A43U A47U]" recorded_value=0.145
residue_codes="AUCCUCUUUCACGUGCGCGUGAAAGAGAGAAGUGAACCAGAGAAACACACGUUGUGGAAUAUUACCUGGUA [G1A U58A]" recorded_value=0.186
